# procedure summary: in vivo
# condition notes: male, cynomolgus monkey, iv, 3 mg/kg
property: clearance (mL/min/kg)
Field format: number, assumed mL/min/kg, no unit text.

## Task Form field: reported clearance of CCC[C@H](NC(=O)[C@@H](NC(=O)[C@@H]1CCCN1C(=O)[C@H](Cc1ccc(O)cc1)NC(=O)[C@H](CCC(=O)O)NC(=O)[C@H](Cc1c[nH]c2ncccc12)NC(=O)[C@H](Cc1ccc(O)cc1)NC(=O)[C@@H](NC(=O)[C@H](CC(=O)O)NC(=O)[C@@H]1CSCc2cccc(c2)CSC[C@H](NC(C)=O)C(=O)N[C@@H](C(C)C)C(=O)N[C@@H](CCC(=O)O)C(=O)N[C@@H](CCCNC(=N)N)C(=O)N[C@@H](Cc2ccccc2)C(=O)N1)C(C)(C)C)C1CCCCC1)C(N)=O
## Result 2.15

* * *

# assayed system: C5 (Homo sapiens, UniProt P01031)
# Sequence (P01031 19-1676): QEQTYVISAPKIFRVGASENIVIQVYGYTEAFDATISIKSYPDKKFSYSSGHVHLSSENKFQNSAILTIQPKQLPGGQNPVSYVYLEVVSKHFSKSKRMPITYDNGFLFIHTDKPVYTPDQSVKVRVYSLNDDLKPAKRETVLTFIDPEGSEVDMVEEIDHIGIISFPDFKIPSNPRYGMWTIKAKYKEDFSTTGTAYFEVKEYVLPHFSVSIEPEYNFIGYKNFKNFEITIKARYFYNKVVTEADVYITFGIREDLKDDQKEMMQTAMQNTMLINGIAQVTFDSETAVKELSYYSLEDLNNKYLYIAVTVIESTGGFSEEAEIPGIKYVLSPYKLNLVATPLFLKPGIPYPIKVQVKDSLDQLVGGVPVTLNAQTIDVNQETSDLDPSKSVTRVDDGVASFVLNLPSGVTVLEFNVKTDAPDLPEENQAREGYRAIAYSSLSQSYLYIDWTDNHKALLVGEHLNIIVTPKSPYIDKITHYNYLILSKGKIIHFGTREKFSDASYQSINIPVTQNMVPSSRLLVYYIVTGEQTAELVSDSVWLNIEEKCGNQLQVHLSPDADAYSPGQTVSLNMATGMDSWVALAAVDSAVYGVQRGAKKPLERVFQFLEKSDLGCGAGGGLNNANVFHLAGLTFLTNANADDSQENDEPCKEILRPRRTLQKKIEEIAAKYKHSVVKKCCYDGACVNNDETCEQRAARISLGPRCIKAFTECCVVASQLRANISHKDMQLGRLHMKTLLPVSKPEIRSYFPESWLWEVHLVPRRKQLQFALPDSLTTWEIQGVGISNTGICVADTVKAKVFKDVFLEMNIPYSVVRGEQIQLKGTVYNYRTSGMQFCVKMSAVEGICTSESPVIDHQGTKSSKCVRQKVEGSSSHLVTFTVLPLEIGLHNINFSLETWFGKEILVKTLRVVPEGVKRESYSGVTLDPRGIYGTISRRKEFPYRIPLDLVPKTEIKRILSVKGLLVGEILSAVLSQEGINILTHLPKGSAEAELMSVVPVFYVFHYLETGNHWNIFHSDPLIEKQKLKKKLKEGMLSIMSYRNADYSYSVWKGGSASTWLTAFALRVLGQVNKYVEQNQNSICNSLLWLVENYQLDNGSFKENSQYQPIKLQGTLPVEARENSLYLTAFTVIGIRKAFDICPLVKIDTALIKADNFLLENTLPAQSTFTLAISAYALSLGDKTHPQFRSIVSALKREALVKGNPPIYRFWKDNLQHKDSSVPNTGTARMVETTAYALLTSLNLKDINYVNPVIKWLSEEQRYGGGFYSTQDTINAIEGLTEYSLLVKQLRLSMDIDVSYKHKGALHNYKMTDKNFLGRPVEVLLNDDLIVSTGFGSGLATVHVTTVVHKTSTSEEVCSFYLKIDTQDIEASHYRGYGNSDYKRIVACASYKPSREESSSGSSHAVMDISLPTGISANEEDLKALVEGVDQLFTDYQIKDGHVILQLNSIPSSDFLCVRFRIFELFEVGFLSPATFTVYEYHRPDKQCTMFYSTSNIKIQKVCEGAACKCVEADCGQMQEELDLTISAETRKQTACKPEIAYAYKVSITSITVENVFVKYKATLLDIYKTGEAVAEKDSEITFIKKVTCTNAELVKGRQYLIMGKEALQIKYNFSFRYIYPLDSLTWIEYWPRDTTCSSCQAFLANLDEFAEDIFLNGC
# procedure summary: Human hemolysis assay (RBC lysis assay using complete human sera)
# Assay type: cell-based
# Design: with complete human sera (Complement Technology, Tyler Tex.) and polypeptides; tissue Complement Technology, Tyler Tex; host or cells: complete human serum
# condition notes: inhibition of lysis of antibody-sensitized sheep erythrocytes, complete human sera
Starred links: 1 amine or outer side, 2 acyl side, 3 side chain; linkers in the order of their positions; H or OH if unused. Positions of bridges follow the written chain, without caps; N, C: chain ends. Non-standard residues stand in square brackets, D forms with d. Residues, ends and D or L forms follow the SMILES beside them. Trp(7-aza) = N[C@@H](Cc1c[nH]c2ncccc12)C(=O)O; mXylylene = c1cc(C[*:1])cc(C[*:2])c1; Phg = N[C@H](C(=O)O)c1ccccc1; Tle = CC(C)(C)[C@H](N)C(=O)O; NMeS = CN[C@@H](CO)C(=O)O; Nva = CCC[C@H](N)C(=O)O; Sar = CNCC(=O)O
property: pIC50
// returns pIC50 (minus log10 of molar concentration), number only

// below: answered compounds
compound	endpoint result
CCC[C@H](NC(=O)[C@@H]1CSCc2cccc(c2)CSC[C@H](NC(=O)[C@H](CCC)NC(C)=O)C(=O)N[C@@H](c2ccccc2)C(=O)N[C@@H]([C@@H](C)O)C(=O)N[C@@H](Cc2c[nH]c3ncccc23)C(=O)N[C@@H](CCC(=O)O)C(=O)N[C@@H](Cc2ccc(O)cc2)C(=O)N2CCC[C@H]2C(=O)N[C@@H](Cc2c[nH]cn2)C(=O)N1)C(N)=O [Compound R3102] (Ac-[Nva]C[Phg]T[Trp(7-aza)]EYPHC[Nva]-NH2; linker 2-10 via mXylylene)	6.01
CCC[C@H](NC(=O)[C@@H]1CSCc2cccc(c2)CSC[C@H](NC(=O)[C@H](C)NC(C)=O)C(=O)N[C@@H](c2ccccc2)C(=O)N[C@@H]([C@@H](C)O)C(=O)N[C@@H](Cc2c[nH]c3ncccc23)C(=O)N[C@@H](CCC(=O)O)C(=O)N[C@@H](Cc2ccc(O)cc2)C(=O)N(C)[C@@H](CO)C(=O)N[C@@H](Cc2c[nH]cn2)C(=O)N1)C(N)=O [Compound R3031] (Ac-AC[Phg]T[Trp(7-aza)]EY[NMeS]HC[Nva]-NH2; linker 2-10 via mXylylene)	5.96
CCC[C@H](NC(=O)[C@@H](NC(=O)[C@@H]1CCCN1C(=O)[C@H](Cc1ccc(O)cc1)NC(=O)[C@H](CCC(=O)O)NC(=O)[C@H](Cc1c[nH]c2ncccc12)NC(=O)[C@H](Cc1ccc(O)cc1)NC(=O)[C@@H](NC(=O)[C@H](CC(=O)O)N(C)C(=O)[C@@H]1CSCc2cccc(c2)CSC[C@H](NC(C)=O)C(=O)N[C@@H](C(C)C)C(=O)N[C@@H](CCC(=O)O)C(=O)N[C@@H](CCCNC(=N)N)C(=O)N[C@@H](Cc2ccccc2)C(=O)N1)C(C)(C)C)C1CCCCC1)C(N)=O	7.92

## Task Looking for the measured pIC50 of CCC[C@H](NC(C)=O)C(=O)N[C@@H](CS)C(=O)N[C@@H](Cc1ccc(O)cc1)C(=O)N[C@@H](CCC(=O)O)C(=O)N[C@@H](CC(N)=O)C(=O)N[C@H](C(=O)N[C@@H](Cc1ccc(O)cc1)C(=O)N[C@@H](Cc1c[nH]c2ncccc12)C(=O)N[C@@H](CCC(=O)O)C(=O)N[C@@H](Cc1ccc(O)cc1)C(=O)N(C)CC(=O)N[C@@H](CCC)C(=O)N(C)[C@@H](CO)C(N)=O)C(C)(C)C [Compound R3001] (Ac-[Nva]CYEN[Tle]Y[Trp(7-aza)]EY[Sar][Nva][NMeS]-NH2) , can you help?
## Result 7.17

## Task Again, but for CCC[C@H](NC(C)=O)C(=O)N[C@H]1CSCc2cccc(c2)CSC[C@@H](C(=O)N[C@@H](C)C(N)=O)NC(=O)[C@H](Cc2c[nH]cn2)NC(=O)[C@H](CO)N(C)C(=O)[C@H](Cc2ccc(O)cc2)NC(=O)[C@H](CCC(=O)O)NC(=O)[C@H](Cc2c[nH]c3ncccc23)NC(=O)[C@H]([C@@H](C)O)NC(=O)[C@H](c2ccccc2)NC1=O [Compound R3039] (Ac-[Nva]C[Phg]T[Trp(7-aza)]EY[NMeS]HCA-NH2; linker 2-10 via mXylylene)
## Result 6.62

Reference source for all entries: patent US10208089B2
